For each of the compounds below, state its IC50.
- Test system: OVCAR-3
- Assay Overview: Cell proliferation with the MTT assay
- Format: cell-based, human
- Experimental Context: read-out: IC50 (Inhibitory concentration 50%), OVCAR-3, ovary, ER+, NR = IC50 not reach at the concentrations tested
Just the number please, in µM, no unit attached.

Q) For C[C@]12CCC3c4ccc(O)cc4CCC3C1C[C@@](CO)(CCCCCCNCCc1ccccn1)[C@@H]2O.[Cl][Pt][Cl] (some centres unmarked) , what is its reported IC50?
A) 12.5

Q) What do you have for C[C@]12CCC3c4ccc(O)cc4CCC3C1C[C@@](CO)(CCCCCCCCNCc1ccccn1)[C@@H]2O.[Cl][Pt][Cl] (some centres unmarked) ?
A) 18.8

Q) Another compound to look at: C[C@]12CCC3c4ccc(O)cc4CCC3C1C[C@@](CO)(CCCCNCCc1ccccn1)[C@@H]2O.[Cl][Pt][Cl] (some centres unmarked)
A) 31.2

Q) Now try C[C@]12CCC3c4ccc(O)cc4CCC3C1C[C@@](CO)(CCCCCCCCCCNCc1ccccn1)[C@@H]2O.[Cl][Pt][Cl] (some centres unmarked) .
A) 40

Q) // next record C[C@]12CCC3c4ccc(O)cc4CCC3C1C[C@@](CO)(CCCCCCCCCCNCCc1ccccn1)[C@@H]2O.[Cl][Pt][Cl] (some centres unmarked)
A) 9.5

Q) Again, but for C[C@]12CCC3c4ccc(O)cc4CCC3C1C[C@@](CO)(CCCCCCCCNCCc1ccccn1)[C@@H]2O.[Cl][Pt][Cl] (some centres unmarked)
A) 5

---

- System: HeLa
- Assay Overview: Cell proliferation with the MTT assay
- Type: cell-based, human
- Experimental Context: read-out: IC50 (Inhibitory concentration 50%), uterus, ER−, NR = IC50 not reach at the concentrations tested
Readout Label: pIC50
The read-out pIC50 is expressed as -log10 of concentration in moles per litre.

Q) Request - read-out pIC50 | tested on HeLa | molecule C[C@]12CCC3c4ccc(O)cc4CCC3C1C[C@@](CO)(CCCCCCCCCCNCc1ccccn1)[C@@H]2O.[Cl][Pt][Cl] (some centres unmarked)
A) 4.49

Q) And the next one, C[C@]12CCC3c4ccc(O)cc4CCC3C1C[C@@](CO)(CCCCCCCCCCNCCc1ccccn1)[C@@H]2O.[Cl][Pt][Cl] (some centres unmarked) ?
A) 5.17

Q) Okay, and C[C@]12CCC3c4ccc(O)cc4CCC3C1C[C@@](CO)(CCCCNCCc1ccccn1)[C@@H]2O.[Cl][Pt][Cl] (some centres unmarked) ?
A) 4.46

Q) And what about the molecule C[C@]12CCC3c4ccc(O)cc4CCC3C1C[C@@](CO)(CCCCCCNCc1ccccn1)[C@@H]2O.[Cl][Pt][Cl] (some centres unmarked) ?
A) 4.44

Q) Note, next up: C[C@]12CCC3c4ccc(O)cc4CCC3C1C[C@@](CO)(CCCCCCCCNCCc1ccccn1)[C@@H]2O.[Cl][Pt][Cl] (some centres unmarked)
A) 5.34

Q) And the next one, C[C@]12CCC3c4ccc(O)cc4CCC3C1C[C@@](CO)(CCCCCCNCCc1ccccn1)[C@@H]2O.[Cl][Pt][Cl] (some centres unmarked) ?
A) 5.05

Q) Thanks! And C[C@]12CCC3c4ccc(O)cc4CCC3C1C[C@@](CO)(CCCCCCCCNCc1ccccn1)[C@@H]2O.[Cl][Pt][Cl] (some centres unmarked) ?
A) 4.46

---

- System: HS578T
- Assay Overview: Cell proliferation with the MTT assay
- Assay type: cell-based, human
- Experimental Context: read-out: IC50 (Inhibitory concentration 50%), breast, ER−, NR = IC50 not reach at the concentrations tested
Please respond with reported IC50 for every item in the list.
Write down the numeric answer in µM and omit the unit.

Q) I'd like to know its IC50. The molecule in question is C[C@]12CCC3c4ccc(O)cc4CCC3C1C[C@@](CO)(CCCCNCCc1ccccn1)[C@@H]2O.[Cl][Pt][Cl] (stereo partly drawn) [derivative 14 (∘ = 2, p = 2)]
A) 33

Q) // same read-out, input: C[C@]12CCC3c4ccc(O)cc4CCC3C1C[C@@](CO)(CCCCCCNCCc1ccccn1)[C@@H]2O.[Cl][Pt][Cl] (stereo partly drawn) [derivative 14 (∘ = 2, p = 4)]
A) 7.25

Q) Now this one: C[C@]12CCC3c4ccc(O)cc4CCC3C1C[C@@](CO)(CCCCCCCCNCc1ccccn1)[C@@H]2O.[Cl][Pt][Cl] (stereo partly drawn) [derivative 14 (∘ = 1, p = 6)]
A) 17.5

---

- Tested on: A2780wt
- Assay Overview: Cell proliferation with the MTT assay
- Assay type: cell-based, human
- Experimental Context: read-out: IC50 (Inhibitory concentration 50%), ovary, ER−, NR = IC50 not reach at the concentrations tested
pIC50: −log10 of the molar value.
Rule: pIC50 under 5 gives -1, otherwise 1.

Q) Determine whether this molecule has pIC50 no lower than 5: C[C@]12CCC3c4ccc(O)cc4CCC3C1C[C@@](CO)(CCCCCCCCNCCc1ccccn1)[C@@H]2O.[Cl][Pt][Cl] (some centres unmarked) [derivative 14 (∘ = 2, p = 6)]
A) 1

Q) Please do the same for C[C@]12CCC3c4ccc(O)cc4CCC3C1C[C@@](CO)(CCCCNCCc1ccccn1)[C@@H]2O.[Cl][Pt][Cl] (some centres unmarked) [derivative 14 (∘ = 2, p = 2)] as well.
A) -1

Q) What about C[C@]12CCC3c4ccc(O)cc4CCC3C1C[C@@](CO)(CCCCCCNCc1ccccn1)[C@@H]2O.[Cl][Pt][Cl] (some centres unmarked) [derivative 14 (∘ = 1, p = 4)] ?
A) -1

Q) Item: C[C@]12CCC3c4ccc(O)cc4CCC3C1C[C@@](CO)(CCCCCCCCNCc1ccccn1)[C@@H]2O.[Cl][Pt][Cl] (some centres unmarked) [derivative 14 (∘ = 1, p = 6)]
A) 1

Q) Query C[C@]12CCC3c4ccc(O)cc4CCC3C1C[C@@](CO)(CCCCNCc1ccccn1)[C@@H]2O.[Cl][Pt][Cl] (some centres unmarked) [derivative 14 (∘ = 1, p = 2)] next
A) -1

Q) Request: C[C@]12CCC3c4ccc(O)cc4CCC3C1C[C@@](CO)(CCCCCCNCCc1ccccn1)[C@@H]2O.[Cl][Pt][Cl] (some centres unmarked) [derivative 14 (∘ = 2, p = 4)]
A) 1

Q) Repeat for the following molecule: C[C@]12CCC3c4ccc(O)cc4CCC3C1C[C@@](CO)(CCCCCCCCCCNCCc1ccccn1)[C@@H]2O.[Cl][Pt][Cl] (some centres unmarked) [derivative 14 (∘ = 2, p = 8)]
A) 1

Each recorded value in this set is attributed to patent US7153844B2.
